system under test: Mannose-6-phosphate isomerase (Homo sapiens) (UniProt P34949)
Sequence (P34949 whole entry, looked up): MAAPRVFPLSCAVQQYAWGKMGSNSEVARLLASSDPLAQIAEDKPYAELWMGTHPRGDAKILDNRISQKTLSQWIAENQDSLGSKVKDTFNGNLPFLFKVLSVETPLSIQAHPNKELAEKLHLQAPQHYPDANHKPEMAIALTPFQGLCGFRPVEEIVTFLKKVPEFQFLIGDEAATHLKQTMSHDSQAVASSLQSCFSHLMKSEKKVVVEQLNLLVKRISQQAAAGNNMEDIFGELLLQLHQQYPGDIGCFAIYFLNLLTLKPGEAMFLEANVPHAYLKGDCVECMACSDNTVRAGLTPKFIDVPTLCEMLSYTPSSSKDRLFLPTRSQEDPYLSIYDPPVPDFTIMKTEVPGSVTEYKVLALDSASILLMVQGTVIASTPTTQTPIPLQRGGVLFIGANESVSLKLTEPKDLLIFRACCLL
experiment summary: MPI inhibition at elevated mannose 6-phosphate – biochemical, fluorescence intensity, high mannose 6-phosphate, primary screen (AID 1220)
condition label: recombinant PMI enzyme, coupled fluorescence intensity; at 20 µM; active compounds read high
Among all 190,000 compounds or so, about 1,300 (0.68%) were called active. Many of the other results were omitted from the sample, so actives are more common in it than they were.
The molecules listed here are annotated with their inhibition.

{"molecule": "CC1=CC(C)(C)Nc2ccc(OC(=O)C(C)N3C(=O)c4ccccc4C3=O)cc21 (centres undefined)", "inhibition": "24.3% (inactive)"}
{"molecule": "CC1=CC(C)(C)Nc2ccc(OC(=O)c3ccco3)cc21", "inhibition": "52% (active)"}
{"molecule": "CC1(C(=O)O)Sc2[nH]c(=O)sc2C2c3ccccc3OC(=O)C21 (centres undefined)", "inhibition": "14.1% (inactive)"}
{"molecule": "C=CCn1c(Cc2ccc(OC)cc2)nnc1SCC(=O)NCCc1ccccc1", "inhibition": "-0.7% (inactive)"}
{"molecule": "CCOC(=O)COc1ccc(/C=C/[N+](=O)[O-])c(OCC(=O)OCC)c1", "inhibition": "1.7% (inactive)"}
{"molecule": "Cc1cccc(OC(=O)CCN2C(=O)C3C4C=CC(C5CC45)C3C2=O)c1C (centres undefined)", "inhibition": "-6.4% (inactive)"}
{"molecule": "O=[N+]([O-])/C=C/c1c(OCc2ccccc2)ccc2ccccc12", "inhibition": "3.1% (inactive)"}
{"molecule": "CC(=O)Nc1ccc(S(=O)(=O)Oc2ccc3c(c2)C(C)=CC(C)(C)N3)cc1", "inhibition": "29.5% (inactive)"}
{"molecule": "COc1cccc(CN(c2ccc3c(c2)CCC3)S(=O)(=O)c2ccc(-n3cnnn3)c(OC)c2)c1", "inhibition": "-3.4% (inactive)"}
{"molecule": "CNC(=O)CSc1nnnn1-c1cc(C)ccc1C", "inhibition": "5.1% (inactive)"}

Using the record for COC(=O)C1Sc2[nH]c(=O)sc2C(c2ccc(Cl)cc2)C1C(=O)OC (centres undefined) , report its inhibition.
34.7% (inactive)

Another molecule to check: CC(Sc1nc(NCc2ccccc2)nc(N2CCOCC2)n1)C(=O)Nc1ccccc1 (centres undefined)
12.4% (inactive)

Another molecule to check: `O=C(Nc1ccccc1)c1ccc(NCCN2CCOCC2)c(S(=O)(=O)N2CCOCC2)c1`
1.4% (inactive)

Another molecule to check: CC(=O)c1ccccc1OC(=O)CCN1C(=O)C2C3C=CC(C4CC34)C2C1=O (centres undefined)
59.3% (active)

Another molecule to check: `CCOC(=O)COc1ccccc1/C=C\[N+](=O)[O-]`
0.8% (inactive)

Another molecule to check: `COC(=O)N/N=C/c1cc(Br)ccc1O`
13.6% (inactive)

Another molecule to check: `COc1ccc(N=Cc2cc(Cl)ccc2O)cc1Cl`
40.6% (inactive)

Another molecule to check: `CC1=CC(C)(C)Nc2ccc(OC(=O)CN3C(=O)CCC3=O)cc21`
12.7% (inactive)

Another molecule to check: `CCN(Cc1cc(=O)n2ccsc2n1)c1cccc2ccccc12`
67.3% (active)

----------
system under test: Mannose-6-phosphate isomerase (Homo sapiens) (UniProt P34949)
experiment summary: MPI inhibition at elevated mannose 6-phosphate – biochemical, fluorescence intensity, high mannose 6-phosphate, primary screen (AID 1220)
condition label: recombinant PMI enzyme, coupled fluorescence intensity; at 20 µM; active compounds read high
About 1,300 (0.68%) of roughly 190,000 compounds were called active. What follows is part of a selection rich in actives, with near analogues and random picks from the rest.
value type: inhibition (%)
Quick reminder: number only, in %, skip the unit.

Using the record for `COc1ccc(/C=N/Nc2nonc2N)cc1OC` , report its inhibition.
-6.6

Another molecule to check: COc1ccc(CCN2C(=O)CC(NCc3ccc4c(c3)OCO4)C2=O)cc1OC (centres undefined)
51

Another molecule to check: `O=C(OCc1c(F)cccc1Cl)c1cnccn1`
11.3

Another molecule to check: `CCc1ccc(-n2c(Cc3ccccc3)n[nH]c2=S)cc1`
10.9

----------
system under test: Mannose-6-phosphate isomerase (Homo sapiens) (UniProt P34949)
experiment summary: MPI inhibition at elevated mannose 6-phosphate – biochemical, fluorescence intensity, high mannose 6-phosphate, primary screen (AID 1220)
condition label: recombinant PMI enzyme, coupled fluorescence intensity; at 20 µM
About 1,300 (0.68%) of roughly 190,000 compounds were called active. Rule as the data show it: active = inhibition above about 50%; inactive = the rest. This excerpt belongs to a sample that is enriched for actives.
Select the correct class. Options are active, inactive and nothing else.

Study these solved cases before continuing.
{"smi": "O=C(CNC(=S)N(CCCN1CCOCC1)Cc1cccs1)N1CCCCCC1", "assigned class": "active"}
{"smi": "O=C1c2ccccc2C(=O)c2cc(S(=O)(=O)Nc3ccccc3)ccc21", "assigned class": "active"}
{"smi": "CSc1nc2c(cc1C#N)CCCCC2", "assigned class": "inactive"}
{"smi": "COc1ccc(-c2nc(NC(=O)Cn3c(=O)oc4ccccc43)sc2C)cc1", "assigned class": "inactive"}

What classification did `Cc1ccccc1NC(=S)N1CCCC1` end up with in this test?
active

Another compound to check: `CCn1ncc([C@@H]2C[C@H]3CN(Cc4ccccc4C)C(=O)[C@]34CCCN24)c1C`
inactive

----------
system under test: Mannose-6-phosphate isomerase (Homo sapiens) (UniProt P34949)
experiment summary: MPI inhibition at elevated mannose 6-phosphate – biochemical, fluorescence intensity, high mannose 6-phosphate, primary screen (AID 1220)
condition label: recombinant PMI enzyme, coupled fluorescence intensity; at 20 µM; active compounds read high
In all, about 190,000 compounds went through this assay and about 1,300 (0.68%) were called active. The sample holds actives, similar compounds and a random draw of the others, so the mix is not that of the screen.
The compounds listed here are annotated with their inhibition.
Quick reminder: number only, in %, skip the unit.

// solved cases for inhibition follow
{"compound": "Cc1nc2ccc(NC(=O)N3CCCCC3)cc2nc1C", "measured value": 21.5}
{"compound": "CCOC(=O)c1cc(CC)sc1/N=C/C1=C(O)CCCC1=O", "measured value": 14.3}
{"compound": "Cc1ccccc1/C=N\\NC(=O)c1ccccc1-n1cccc1", "measured value": 15.6}
{"compound": "N#Cc1c(N2CCCCC2)nc(N)c2c(N)nc3c(c12)CC(c1ccccc1)O3 (stereo not drawn)", "measured value": 56.5}
{"compound": "CC1CCN(C(=S)Nc2ccc(F)cc2)CC1", "measured value": -10.5}

Using the record for COc1cc(/C=N\NC(=O)C2C(=O)NCC2c2ccccc2)cc(OC)c1O (stereo not drawn) , report its inhibition.
50.9

Another compound to check: `CCOC(=O)c1cc(CC)sc1/N=C/c1c(O)ccc2ccccc12`
60.7

Another compound to check: `CCOC(=O)c1cc(CC)sc1/N=C/C1=C(O)CC(C)(C)CC1=O`
7.3

----------
The compounds listed here are annotated with their inhibition.
system under test: Mannose-6-phosphate isomerase (Homo sapiens) (UniProt P34949)
experiment summary: MPI inhibition at elevated mannose 6-phosphate – biochemical, fluorescence intensity, high mannose 6-phosphate, primary screen (AID 1220)
condition label: recombinant PMI enzyme, coupled fluorescence intensity; at 20 µM; active compounds read high
In all, about 190,000 compounds went through this assay and about 1,300 (0.68%) were called active. This excerpt belongs to a sample that is enriched for actives.
Quick reminder: number only, in %, skip the unit.

// solved cases for inhibition follow
{"compound": "CSc1ccc(CN2CCN(Cc3ccc([N+](=O)[O-])cc3)CC2)cc1", "inhibition [%]": 4}
{"compound": "Cc1ccccc1-n1c(-c2ccncc2)n[nH]c1=S", "inhibition [%]": -11.7}
{"compound": "Cc1c(NC(=O)CN2CCN(c3ccc(O)cc3)CC2)c(=O)n(-c2ccccc2)n1C", "inhibition [%]": 53}
{"compound": "Cc1ccc(NC(=O)CN2C(=O)NC(C)(CCc3ccccc3)C2=O)cc1 (stereo not given)", "inhibition [%]": 26.7}
{"compound": "O=C(CN1CCN(c2ccc(O)cc2)CC1)NC(c1ccccc1)c1ccccc1", "inhibition [%]": 64}
{"compound": "COc1cc(CN2CCN(c3ccc(C)cc3)CC2)cc([N+](=O)[O-])c1O", "inhibition [%]": 10.7}

Using the record for `COc1cccc(CN2CCN(C(=O)Nc3ccc([N+](=O)[O-])cc3)CC2)c1` , report its inhibition.
10.7

Another compound to check: `Cc1ccc(CN2CCN(/N=C/c3ccc(Cl)c([N+](=O)[O-])c3)CC2)cc1`
15.3

Another compound to check: `O=C(CN1CCN(c2ccccc2O)CC1)NC(c1ccccc1)c1ccccc1`
15.4

Another compound to check: `CCOC(=O)c1cnn(-c2ccccc2)c1NC(=O)CCl`
-1.3

----------
The molecules listed here are annotated with their inhibition.
system under test: Mannose-6-phosphate isomerase (Homo sapiens)
experiment summary: MPI inhibition at elevated mannose 6-phosphate – biochemical, fluorescence intensity, high mannose 6-phosphate, primary screen (AID 1220)
condition label: recombinant PMI enzyme, coupled fluorescence intensity; at 20 µM; active compounds read high
Out of some 190,000 compounds screened, about 1,300 (0.68%) were called active. The list comes from a sample in which actives are over-represented; it also holds close analogues and randomly drawn compounds.
Quick reminder: number only, in %, skip the unit.

{"molecule": "CCN(CC)S(=O)(=O)c1cc(-c2nnc(-c3ccc(Br)cc3)o2)ccc1Cl", "measured value": 3.4}

Using the record for CCCCN1C(=O)C(O)=C(C(C)=O)C1c1ccccc1 (stereo not given) , report its inhibition.
-7.7

Another molecule to check: CCN(c1ccccc1)S(=O)(=O)c1ccc(Cl)c(NC(=O)COC(=O)C2CC2C)c1 (stereo not given)
6.5

Another molecule to check: `O=C(Nc1ncc(Cc2cccc(Cl)c2Cl)s1)c1ccc([N+](=O)[O-])cc1`
-1

Another molecule to check: CN(C(=O)CSc1nnc(-c2ccc(F)cc2)c2ccccc12)C1CCS(=O)(=O)C1 (stereo not given)
-14.8
